System: ACHN
PROTOCOL: NCI tumour cell line growth inhibition, 48 h
Activity calls are given as the source filed them. Cut-off read from the data, not from the text of the source: active = GI50 up to about 1.1 µM and inactive = higher.
Hi there, use one of these labels in your reply, thanks! T = active, F = inactive

Ask: Per the assay record, what outcome was assigned to Cc1ccccc1NC(=O)CC1C(=O)Nc2ccccc2[S+]1[O-] (configuration not stated) ?
Result: F

Ask: Tell me the assay call for O=[N+]([O-])c1ccc2occ3c2c1CCC3 please.
Result: F

Ask: Query: recorded result category for CC(C)C[C@H](NC(=O)[C@H](Cc1cccc2ccccc12)NS(=O)(=O)c1cccc2cccnc12)B(O)O in this test
Result: T

Ask: Answer briefly: the call reported for CCOC(=O)C1(C#N)OC(=O)c2cnccc21 (configuration not stated) in this assay.
Result: F

Ask: Dear colleague, could you share the recorded outcome for COC(=O)CC1NC(=O)C1C1(C)OCCO1 (configuration not stated) when you have a moment?
Result: F

Ask: Per the assay record, what outcome was assigned to CN(/N=C/c1ccc(Cl)cc1)C1=NCCCCN1 ?
Result: F

Ask: Hi, do you know how COc1ccc(N2C(=O)C3c4[nH]c5ccc(C)cc5c4C4CCC(C(C)(C)C)CC4C3C2=O)cc1 (configuration not stated) came out in this test?
Result: F

Ask: Write down the call the test reported for this molecule. Item: CC(=O)OC1CC2CCC1(C)C2(C)C (configuration not stated)
Result: F

Ask: Recorded test call requested for CCn1c2ccccc2c2ccc3c(c21)C(=O)c1ccccc1C3=O
Result: F

Ask: Record request — test call for COc1cc(/C=C/c2cccnc2)cc(OC)c1OC
Result: F

Ask: Record request — test call for O[C@H]1[C@@H]2OC[C@@H](O)[C@H](OCc3ccccc3)[C@@](COCc3ccccc3)(O2)[C@@H]1OCc1ccccc1
Result: F

Ask: Recorded test outcome, item O=C(N/N=C/C=C/c1ccc([N+](=O)[O-])o1)c1ccc(C(=O)N/N=C/C=C/c2ccc([N+](=O)[O-])o2)cc1
Result: F

Ask: Any idea what this test logged for COc1ccc(/C=N\NC(=O)Nc2cccc3ccccc23)cc1 ?
Result: F

Ask: Hi, do you know how CSc1cc(C(C)(C)C)ccc1C(O)c1ccc(C(C)(C)C)cc1SC came out in this test?
Result: F

Ask: Outcome logged for COC(=O)[C@H](NC(=O)OC(C)(C)C)[C@H]1COC(C)(C)O1 in this assay:
Result: F

Ask: Hi, sorry to bother you, what did the test record for C1CSCCCSCCSCCCSC1 ?
Result: F

Ask: Call for entry O=C(Nc1ccc(Cl)cc1Cl)C1C(=O)OC2(CCCCC2)OC1=O :
Result: F

Ask: What was the test verdict on C[n+]1cc2cc(O)c(O)cc2c2ccc3cc(O)c(O)cc3c21.c1ccncc1 ?
Result: F

Ask: Could you kindly confirm the outcome this assay logged for O=c1c2ccccc2nc(N/N=C/c2ccc([N+](=O)[O-])cc2)n1-c1ccccc1 ?
Result: F

Ask: Field: outcome | Entry: NC(=O)NCc1c(C(N)=O)ncn1Cc1ccccc1
Result: F

Ask: I would be grateful if you could indicate the recorded call for CCN(CC)/C(Sc1ccccc1)=C(\C(Cl)=C(Cl)Cl)[N+](=O)[O-] .
Result: F

Ask: // param item: C#CCn1c(=O)c2ccccc2n(CC#C)c1=O ; yields the recorded call
Result: F
